Assignment: determine reported z-score for the given compounds.
ASSAY METHOD TEXT: modulators of HCV replicon luciferase signal, primary screen, HCV replication inhibitor project, Huh7 cells, luciferase reporter (AID 1109);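 further: huh7 hepatoma cells harbouring a luciferase neomycin HCV replicon reporter; luciferase luminescence as measure of HCV replicon replication; test concentration not given here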
EXPERIMENTAL CONTEXT: 48 h, higher = more signal
No unit in the answer, only the number.

Q: Which z-score is listed for CCN1C(=O)[C@H]2[C@H]3[C@H](O)[C@H](O)CC(=NO[C@H](C)c4cn([C@H](CO)Cc5ccccc5)nn4)[C@@H]3CC[C@H]2C1=O ?
Result: -1.02

Q: Which z-score is listed for CCOC(=O)[C@H](Cc1ccccc1)NC(=O)CCC1CC(OC(=O)NCc2ccc3c(c2)OCO3)CC2(CCCC(COC(=O)NCCOc3ccccc3)O2)O1 (some centres not stated) ?
Result: -0.682

Q: Which z-score is listed for CCCNC(=O)OC[C@H]1O[C@H](CCON=C[C@@H](C)[C@H](OCc2ccccc2)C(C)C)C=C[C@@H]1Oc1ccc(OC)cc1 ?
Result: -2.17

Q: Which z-score is listed for O=C1C=C[C@@H](O)[C@@H]2[C@@H]3C(=O)N(c4cccc(Oc5ccccc5)c4)C(=O)[C@@H]3CC[C@@H]12 ?
Result: -2.07

Q: Which z-score is listed for CCOC(=O)[C@H](Cc1ccccc1)NC(=O)CCC1CC(OC(=O)NCc2cccc3ccccc23)CC2(CCCC(COC(=O)NCCc3ccccc3OC)O2)O1 (some centres not stated) ?
Result: -1.06

Q: Which z-score is listed for C[C@@H]1CC[C@H]2C(=O)N3[C@@H](CC[C@@H](C)[C@@H]3c3ccc(Br)cc3)C(=O)N2[C@H]1c1ccc(Br)cc1 ?
Result: -1.82

Q: Which z-score is listed for C[C@@H]1CC[C@H]2C(=O)O[C@@H](CN=[N+]=[N-])CN2[C@H]1c1ccc(Br)cc1 ?
Result: -4.98

Data provenance is PubChem BioAssay.
